tested on: KB-3-1; assay: Cytotoxic Profiling of Annotated Libraries Using Quantitative High-Throughput Screening (AID 1296008); conditions: Five cell lines viability, CellTiter-Glo ATP luminescence, 48-72 h; active compounds read low; also: % is scaled to controls: 0 for no effect and ±100 for the full control effect; nearly all actives have a fitted effect of over 60% in size
Results filed as inconclusive are left out. Where a SMILES comes first, the peptide text is derived from it. [ ]: non-standard residue; d: D form. ξ: configuration not given here. ξLac(3-iPr) = CC(C)CC(O)C(=O)O; NMeV = CN[CH](C(=O)O)C(C)C; βAla = NCCC(=O)O
VALUE_TYPE: max response (%)
Answers are plain numbers, in %.

[
  {
    "MOLECULE": "CC(C)CC1OC(=O)C2CCCN2C(=O)CCNC(=O)C(Cc2ccccc2)NC(=O)C(C(C)C)N(C)C(=O)C(C(C)C)N(C)C1=O (stereo not drawn) (cyclo([ξLac(3-iPr)][NMeV][NMeV]F[βAla]P); configuration not given here)",
    "VALUE_TYPE": "max response",
    "NUMERIC_VALUE": 3.73
  },
  {
    "MOLECULE": "O=C(CCc1nnc2n(Cc3ccc(Cl)cc3)c(=O)c3ccccc3n12)NCCC1=CCCCC1",
    "VALUE_TYPE": "max response",
    "NUMERIC_VALUE": -11.9
  },
  {
    "MOLECULE": "Cc1cc(N2CCN([C@@H]3CN[C@H](C(=O)N4CCSC4)C3)CC2)n(-c2ccccc2)n1",
    "VALUE_TYPE": "max response",
    "NUMERIC_VALUE": -12.3
  },
  {
    "MOLECULE": "COc1ccc(-c2c(-c3cc(C(=O)O)ccn3)ncn2C)cc1",
    "VALUE_TYPE": "max response",
    "NUMERIC_VALUE": 4.75
  },
  {
    "MOLECULE": "OC[C@H]1O[C@@H](OCCc2ccc(O)cc2)[C@H](O[C@@H]2OC[C@](O)(CO)[C@H]2O)[C@@H](O)[C@@H]1O",
    "VALUE_TYPE": "max response",
    "NUMERIC_VALUE": 8.69
  },
  {
    "MOLECULE": "C=C1C[C@]23C[C@H]1[C@@H](O)C[C@H]2[C@@]12C=C[C@H](O)[C@@](C)(C(=O)O1)[C@H]2[C@@H]3C(=O)O",
    "VALUE_TYPE": "max response",
    "NUMERIC_VALUE": -2.31
  }
]

# return max response for each item in the list
1. N#Cc1ccc2[nH]cc(CCCCN3CCN(c4ccc5oc(C(N)=O)cc5c4)CC3)c2c1
2. CCc1cc(CN2CC(C(=O)O)C2)sc1-c1noc(-c2ccc(Oc3ccccc3)cc2)n1

-15.8
-20.8
